The reported numbers originate from PubChem BioAssay.

assay: inhibitors of TNFa-induced NFkB p65 translocation, primary screen, imaging, HUVEC, MLSMR starter and 10KST1 sets (AID 438); conditions: HUVEC TNFa-induced p65 nuclear translocation; measured here: nuclei count (cytotoxicity indicator), at 2.08 µM;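 note: compound added about 3h40 before a 20 min TNFalpha stimulation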
Note to self: values exactly at 400 are Y. So cell count at or above 400 is Y, below is N.

compound=COc1ccc(CCN2CC(O)=C(c3nc4ccccc4c(=O)[nH]3)C2=N)cc1OC assigned_class=Y
compound=CCOC(=O)N1CCC(NC(=O)c2cnn3ccccc23)CC1 assigned_class=Y
compound=COc1cccc(NC(=O)CSc2nnc(-c3cc(-c4ccccn4)nc4ccccc34)o2)c1 assigned_class=Y

Reported cell count at or above 400? `Cc1nc2ncnn2c(C)c1CCC(=O)NCCCN1CCN(c2cccc(Cl)c2)CC1`
N

Reported cell count at or above 400? O=C(NCc1cccs1)C1CC(=O)N(c2ccccc2)C1 (configuration not stated)
N

====

assay: inhibitors of TNFa-induced NFkB p65 translocation, primary screen, imaging, HUVEC, MLSMR starter and 10KST1 sets (AID 438); settings: HUVEC TNFa-induced p65 nuclear translocation; at 2 µM, stronger effect = higher value, 0% TNFa-plus-vehicle, 100% no-TNFa wells;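 note: compound added about 3h40 before a 20 min TNFalpha stimulation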;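 for inhibition: signal is the nuclear over cytoplasmic p65 intensity ratio per well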
Experimental Endpoint: inhibition (%)
Give bare numbers, in %.

compound=CCOC(=O)N1CCN(CC(=O)Nc2cc(C)nn2-c2nc3ccccc3s2)CC1 experimental_endpoint=inhibition measured_number=9.9
compound="COc1ccc(CN(CC(=O)NCC2CCCO2)C(=O)CNS(=O)(=O)c2ccc(C)cc2)cc1 (stereo unspecified)" experimental_endpoint=inhibition measured_number=-20.2

Look up inhibition for the entries below, preserving their order.
1. Cc1ccc(S(=O)(=O)NC(=O)c2cc(C)n(CCCn3ccnc3)c2C)cc1
2. CCOc1ccccc1N(CC(=O)NC1CCCC1)C(=O)CCCC(=O)Nc1ccccn1
3. CCN(CC)S(=O)(=O)c1ccc2oc(SCc3ccc(F)cc3)nc2c1
4. O=C(COc1ccccc1Cl)NCc1ccco1
5. COC(=O)c1ccc(NC(=O)C2CC(=O)N(c3cc(C)ccc3C)C2)cc1 (stereo unspecified)
6. CNC(=O)C1C2C=CC3(O2)C1C(=O)N(C1CC1)C3C(=O)NCc1ccc(OC)cc1 (stereo unspecified)

[-2.9, 5.3, -9.4, -13, 6.6, 11.8]

====

biological target: Alpha-2C adrenergic receptor (Homo sapiens); experiment: compounds altering alpha2C-coupled GIRK flux – cell-based, HEK293 alpha2C/GIRK1/2, thallium flux, primary screen (AID 624); conditions: thallium flux BTC fluorescence, at 10 µM, actives lie on both sides;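 note: slope of fluorescence ratio to pre-addition baseline per second over 15 to 24 s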
Label T when slope is strictly below 0.006; otherwise label F.

Recorded results for 5 compounds are shown here.
compound=Cc1ccc(CCNC(=O)C2CCN(S(=O)(=O)c3c(C)nn(C)c3C)CC2)cc1 assigned_class=F
compound=Cc1noc(/C=C/N(C)C)c1S(=O)(=O)N1CCc2ccccc21 assigned_class=F
compound=CCCC(CCC)C(=O)NCCN1CCOCC1 assigned_class=T
compound=COc1ccc(Oc2c(C)oc3cc(OC(=O)N4CCOCC4)ccc3c2=O)cc1 assigned_class=T
compound=CCN(CC)c1ccc2cc(NC(=O)CCC(=O)O)c(=O)oc2c1 assigned_class=T

# input for lookup
Confirm or reject: slope of `CCCc1cc(=O)[nH]c(/N=C(\N)Nc2ccccc2)n1` lies strictly below 0.006
T
